test system: DMS 114 small cell lung; test: NCI tumour cell line growth inhibition, 48 h
quantity-measured: TGI

Qu. May I ask what TGI has been recorded for CC1CC(c2ccc([N+](=O)[O-])cc2)=Nc2ccccc2S1=O (stereo unspecified) ?
Ans. 33.2 µM

Qu. Next molecule up: CCOc1cc[n+](C(=C=[N-])C#N)cc1
Ans. > 100 µM

Qu. Next molecule up: COC(=O)C(C(=O)C(=O)Nc1ccc(N)cc1[N+](=O)[O-])c1nc2ccc(Cl)cc2[nH]c1=O (stereo unspecified)
Ans. > 100 µM

Qu. Next molecule up: N#CC1([N+](=O)[O-])C=C1c1ccccc1 (stereo unspecified)
Ans. > 100 µM

Qu. Next molecule up: Cc1ccc(NC(=O)CC2C(=O)Nc3ccccc3S2(=O)=O)cc1C (stereo unspecified)
Ans. > 100 µM

Qu. Next molecule up: CC(=O)N1CCN(C=S)CC1
Ans. > 100 µM

Qu. Next molecule up: C#Cc1ccccc1N1C(=O)C=CC1=O
Ans. > 100 µM

Qu. Next molecule up: NCCSc1nc(N)c2ncn(C3OC(CO)C(O)C3O)c2n1 (stereo unspecified)
Ans. > 100 µM

Qu. Next molecule up: COC1=CC(=O)C2C(C1=O)[C@@H]1c3ccccc3OC[C@H]21 (stereo partly specified)
Ans. > 100 µM

Qu. Next molecule up: COc1c(OC2OC(CO)C(O)C(O)C2O)cc2c(c1OC)-c1ccc(OC)c(=O)cc1[C@@H](NC(C)=O)CC2 (stereo partly specified)
Ans. > 97 µM

Qu. Next molecule up: O=C1OC(=O)C2C1C1C(c3ccccc3)=C(c3ccccc3)C2(O)C2C(=O)OC(=O)C12 (stereo unspecified)
Ans. > 100 µM

----------
tested on: HOP-92 NSCLC; test: NCI tumour cell line growth inhibition, 48 h; in the data active means GI50 below about 0.43 µM; inactive means the rest
Form entry, call: pick from active, inactive

Qu. Outcome logged for O=C1C=C(OCC=C(Cl)Cl)C(=O)c2ccccc21 in this assay:
Ans. inactive

Qu. Next compound up: CCCCCCCCCCCCCCCC(N)c1ccccc1 (stereo unspecified)
Ans. inactive

Qu. Next compound up: COc1ccc(-c2cc3c(N)ncnc3o2)cc1
Ans. inactive

Qu. Next compound up: O=C1CC2OCC=C3CN4CCC56c7ccccc7N1C5C2C3CC46 (stereo unspecified) (tested in a mixture with another compound)
Ans. inactive

Qu. Next compound up: CNCC1CCn2c(c(C3=C(c4cn(C)c5ccccc45)C(=O)NC3=O)c3ccccc32)C1 (stereo unspecified)
Ans. active

Qu. Next compound up: NC(N)=NC(N)=NCc1ccco1
Ans. inactive

Qu. Next compound up: Cn1c(=O)c2[nH]cnc2n(C)c1=O.[CH2-]C(Cc1cccc2cc(C(=O)O)c(=O)oc12)OC.[Hg+2].[OH-] (stereo unspecified)
Ans. inactive

Qu. Next compound up: CC(=O)N1c2ccc(-c3ccc(C(=O)O)cc3)cc2[C@H](Nc2ccc(Cl)cc2)C[C@@H]1C
Ans. active

Qu. Next compound up: COc1ccc2c(c1)NC(=O)CN2c1nc(C)nc2ccccc12
Ans. inactive

Qu. Next compound up: CSc1nc(-c2cccc(NC(=O)CCl)c2)c(C#N)c(=O)n1C
Ans. inactive

Qu. Next compound up: O=C(N/N=C/c1cccc(O)c1)c1ccc(C(F)(F)F)nc1Nc1cccc(C(F)(F)F)c1
Ans. inactive

Qu. Next compound up: COn1cc(C(=O)N=C(SC)SC)c2ccccc21
Ans. inactive

Qu. Next compound up: COc1ccc(OC)c(/C=C/C(=O)c2ccc3cc(OC)ccc3c2)c1
Ans. inactive

Qu. Next compound up: CC1CC2(C)CC(=O)C1C1C(=O)N(CCN3CCOCC3)C(=O)C12 (stereo unspecified)
Ans. inactive

Qu. Next compound up: COc1ccc2c(c1)O/C(=C\c1ccc([N+](=O)[O-])s1)C2=O
Ans. inactive

Qu. Next compound up: CN1CCN(Cc2ccc(NC(=O)c3cncc(C#Cc4ncc5ccccn45)c3)cc2C(F)(F)F)CC1
Ans. inactive
